System: SNB-75 CNS
Assay: NCI tumour cell line growth inhibition, 48 h
Collected TGI values appear next to each entry.
Quick reminder: number only, in µM, skip the unit.

Examples from the recorded data:
{"columns": ["compound", "system.tested", "quantity.kind", "val"],
 "data": [
  ["Cc1cc2c(c(C=Nc3ccccc3O)c1)OC1(C=C2)Oc2ccccc2C(=O)N1C (stereo unspecified)", "SNB-75 CNS", "TGI", 52.3],
  ["COc1ccc(/C=C/C(=O)c2cc(OC)c(OC)c(OC)c2)cc1OCC(=O)Nc1nc2ccc(OC(F)(F)F)cc2s1", "SNB-75 CNS", "TGI", 2.3],
  ["CCN(Cc1ccc(C)cc1)c1ccc(CO)c(Cl)c1", "SNB-75 CNS", "TGI", 20.9],
  ["C=CCN(c1cc(OCc2ccccc2)c2[nH]cc(C)c2c1)S(C)(=O)=O", "SNB-75 CNS", "TGI", 55.6],
  ["CCOC(=O)c1cc(C(=O)c2cc(OC)c(OC)c(OC)c2)n2ncccc12", "SNB-75 CNS", "TGI", 42.4]
]}

Per the records, this compound ( `Cc1cc(O)c(=O)cc2c1C[C@H]1CC(C)(C)/C=C/C[C@]3(C)Oc4cc(=O)c(O)cc(C)c4C[C@H]3C[C@H](O)[C@@]1(C)O2` ) has TGI equal to 42

Value of measured TGI for the entry `COc1cc(/C=C\c2cc(OC)c(OC)c(OC)c2)cc(N/C=C\C(=O)c2ccc(OC(F)(F)F)cc2)c1OC` : 24

TGI reported for this compound `COc1ccc(C2=N[C@@H](Cc3ccccc3)C(=O)Nc3ccsc32)cc1` : 7.08

// `Fc1cccc(COc2ccc(Nc3ncnc4sc(-c5cccs5)cc34)cc2Cl)c1` : TGI value = 10

What the record says about `CC(C)(CN1CCCCC1)C(=O)/C=C/c1ccc(/C=C/C(=O)C(C)(C)CN2CCCCC2)cc1` : TGI is 1.82

---

System: U251 CNS
Test: NCI tumour cell line growth inhibition, 48 h
quantity.kind: TGI

{"columns": ["compound", "system.tested", "quantity.kind", "val"],
 "data": [
  ["O=c1[nH]c2ccccc2c2ccccc12", "U251 CNS", "TGI", "> 100 µM"],
  ["Cn1c2c(c3ccccc31)CCN(CCCCN1CCCCC1)C2=O", "U251 CNS", "TGI", "> 100 µM"],
  ["CN(C)c1ccc(C=Nc2ccc(Oc3ccc(Cl)cc3)c(Cl)c2)cc1", "U251 CNS", "TGI", "34.7 µM"],
  ["CCOC(=O)c1nc2ccc(C(F)(F)F)cc2nc1NCc1ccc(OC)cc1", "U251 CNS", "TGI", "> 100 µM"],
  ["O=C(O)CN1C=C(C(=O)c2cc3ccccc3n2S(=O)(=O)c2ccccc2)CCC1", "U251 CNS", "TGI", "> 100 µM"]
]}

From here, focus on the item given below.
Query `N.N.N.N.N.[Co+3].[I-].[N-]=[N+]=[N-]` on U251 CNS; TGI returned: > 100 µM

---

Tested on: SK-MEL-28 melanoma
Experiment: NCI tumour cell line growth inhibition, 48 h
Measured TGI, listed per entry for reference.

Recorded TGI, per entry:
{"columns": ["compound", "quantity.kind", "val"],
 "data": [
  ["O=C(CSc1nc2ccc([N+](=O)[O-])cc2s1)c1ccc2ccccc2c1", "TGI", "> 100 µM"],
  ["COc1ccc(N=N/C(=N/NC(=O)c2ccc(C)cc2)c2ccc(N(CCC#N)CCC#N)cc2OC)cc1", "TGI", "> 100 µM"],
  ["COC(=O)c1n[nH]c(C)c1N=NN(C)CCC#N", "TGI", "> 100 µM"],
  ["Cc1cc2c(c(C=Nc3ccccc3O)c1)OC1(C=C2)Oc2ccccc2C(=O)N1C (stereo not given)", "TGI", "47.5 µM"],
  ["CC(C)(C)c1ccc(S(=O)(=O)Oc2ccc3c4c(c(=O)oc3c2)CCCCC4)cc1", "TGI", "> 100 µM"]
]}

Recorded TGI for `Nc1ncnc2c1sc1nc3ccccc3n12` on SK-MEL-28 melanoma was > 100 µM

# TGI measured on SK-MEL-28 melanoma for item `Cc1nc(N)c(N2CCN(C(=O)O)CC2)c(=O)[nH]1` = > 100 µM

Recorded TGI for `O=S(=O)(NCCCNc1nccc(-c2c(-c3ccc(O)cc3)nc3sccn23)n1)c1ccc(F)cc1` on SK-MEL-28 melanoma was 6.23 µM

TGI value, target or system SK-MEL-28 melanoma, for `CN(C)c1ccc(C=Nc2ccc(Oc3ccc(Cl)cc3)c(Cl)c2)cc1` : 48.6 µM

Let me check: `CC(C)(C)OC(=O)n1c2ccccc2c2c(=O)nc(N3CCCCC3)sc21` , system SK-MEL-28 melanoma, measured TGI is > 100 µM

---

Tested on: SK-MEL-5 melanoma
Assay: NCI tumour cell line growth inhibition, 48 h
Below, each entry is listed with its recorded TGI.

Solved cases below.
{"columns": ["molecule", "TGI"],
 "data": [
  ["CC(C)(C)OC(=O)NC(CCCCNC(=O)OCc1ccccc1)C(=O)NCCNc1ccc(NCCNC(=O)C(CCCCNC(=O)OCc2ccccc2)NC(=O)OC(C)(C)C)c2c1C(=O)c1ccccc1C2=O (stereo not drawn)", "> 100 µM"],
  ["Oc1ccc(O)c(CNc2ccc(C(O)C(F)(F)F)cc2)c1 (stereo not drawn)", "76.2 µM"],
  ["N#CC12Cc3cc4c(cc3-c3cccc(c31)CCN2C(=O)c1ccccc1)OCO4 (stereo not drawn)", "> 100 µM"]
]}

For reference, reported TGI for COC(=O)CCC(NC(=S)N/N=C(\C)c1cnc2ccccc2n1)C(=O)OC (stereo not drawn) stands at 80.7 µM

TGI measured on `Cc1cc(O)c(=O)cc2c1C[C@H]1CC(C)(C)/C=C/C[C@]3(C)Oc4cc(=O)c(O)cc(C)c4C[C@H]3C[C@H](O)[C@@]1(C)O2` = 0.0985 µM

Notebook: `O=C(Nc1ccc2[nH]nc(-c3ccncc3)c2c1)[C@@H]1CCN(CC(=O)N2CCN(c3ccc(-c4ncccn4)cc3)CC2)C1` , TGI read as > 100 µM

---

System: PC-3 prostate
Assay: NCI tumour cell line growth inhibition, 48 h
quantity.kind: TGI

{"columns": ["compound", "TGI"],
 "data": [
  ["O=c1oc2ccccc2nc1/C=C(\\O)c1ccc(Cl)cc1", "> 100 µM"],
  ["O=c1[nH]c(Cc2ccccc2)nc2c1sc1nc3ccccc3n12", "> 100 µM"],
  ["Fc1cccc(COc2ccc(Nc3ncnc4sc(-c5cccs5)cc34)cc2Cl)c1", "> 20.4 µM"],
  ["COc1cc(C2Cc3ncccc3-c3[nH]c(=O)c4cccnc4c32)cc(OC)c1OC (stereo not drawn)", "> 100 µM"],
  ["Cn1cnc([N+](=O)[O-])c1Sc1nc(N)nc2c1ncn2C1OC(CO)C(O)C1O (stereo not drawn)", "> 100 µM"]
]}

The recorded TGI for entry `O=C(Cc1ccc(/C=C/C(=O)c2ncc[nH]2)cc1)Nc1ccc(F)cc1` equals 11.9 µM

Note to self: TGI recorded for `c1cc(NNc2cccc(-c3nn[nH]n3)c2)cc(-c2nn[nH]n2)c1` was > 100 µM

Memo: `CN(c1ncccc1CNc1nc(Nc2ccc3c(c2)CC(=O)N3)ncc1C(F)(F)F)S(C)(=O)=O` , reported TGI: > 35.9 µM

Quick note, TGI for `C#C[C@]1(O)CC[C@H]2[C@@H]3CCC4=C/C(=N/OCCN(C)C)CC[C@]4(C)[C@H]3CC[C@@]21C` landed at > 100 µM

The compound identified as `CCOC(=O)/C(=C/N1CCN(C(=O)c2ccco2)C1=S)C(=O)c1ccccc1` registered its TGI at > 50 µM

TGI in this record for `O=C1NC(N2CCOCC2)=N/C1=C\c1ccc(Cl)cc1` : > 100 µM

response.value for CCOC(=O)C1Cc2c(cc3c4c(cccc24)N(C(C)=O)C3)N(C)C1 (stereo not drawn) (field: TGI) = > 100 µM

Query `NNC(=S)N/N=C(\C(=O)Nc1cccc(O)c1)C1C(=O)NC(=S)NC1=O` yields TGI of > 100 µM

For this compound ( `Cc1cc(O)c(=O)cc2c1C[C@H]1CC(C)(C)/C=C/C[C@]3(C)Oc4cc(=O)c(O)cc(C)c4C[C@H]3C[C@H](O)[C@@]1(C)O2` ), measured TGI is 23.5 µM

What the record says about `CC(=O)C(=[N+]=[N-])C(=O)N1CCOC1=O` : TGI is > 10 µM

Per the record, `COc1ccc(/C=C/C(=O)c2cc(OC)c(OC)c(OC)c2)cc1OCC(=O)Nc1nc2ccc(OC(F)(F)F)cc2s1` has TGI of 7.82 µM

The compound listed as CC[C@H](C)[C@H]1NC(=O)[C@@H](NC(=O)[C@@H](CC(C)C)N(C)C(=O)C2CCCN2C(=O)[C@H](C)O)[C@@H](C)OC(=O)[C@H](Cc2ccc(OC)cc2)N(C)C(=O)[C@@H]2CCCN2C(=O)[C@H](CCCCNC(=O)OCc2ccccc2)NC(=O)[C@H](C)C(=O)[C@H](C(C)C)OC(=O)C[C@@H]1O (stereo partly drawn) has a reported TGI of 16.5 µM

Form field TGI, entry `Fc1cc2[nH]ncc2c2c3c(c(-c4cn[nH]c4C(F)(F)F)nc12)CCCC3` : > 100 µM

The compound listed as `CC(=O)Nc1ccc2c(c1)C(c1ccccc1Cl)=Nc1c(n[nH]c1C)N2` shows TGI equal to > 25 µM

Per the records, this compound ( CCN1C(=S)N(c2ccccc2)C2NC(=S)N(/N=C/C=C/c3ccccc3OC)C21 (stereo not drawn) ) has TGI equal to > 100 µM
